FYI, the data here is from patent US20260206755A1.

test system: Anopheles stephensi; assay: Anopheles stephensi treated well plate contact test: knockdown and mortality; type: in vivo; conditions: test compound 0.2 ppm plus 2 ppm TFNA-AM, after 24 hours
# label = bin(measured mortality % 24, with TFNA-AM), where bins are group A = under 30%, group B = from 30% up to 60%, group C = 60% and over

Cc1cc(C(F)(C(F)(F)F)C(F)(F)F)ccc1NC(=O)c1cccc(I)c1C(=O)NC(C)(C)CS(C)(=O)=O [Flubendiamide]: group C

Class label required: CON=C(C(=O)OC)c1ccccc1CON=C(C)c1cccc(C(F)(F)F)c1
group A

Class label required: CN(C(=O)c1ccccc1)c1cccc(C(=O)Nc2c(Br)cc(C(F)(C(F)(F)F)C(F)(F)F)cc2C(F)(F)F)c1F [Broflanilide]
group C

Class label required: N#Cc1ccc(CC(=NNC(=O)Nc2ccc(OC(F)(F)F)cc2)c2cccc(C(F)(F)F)c2)cc1 (mixture of isomers)
group B

Class label required: O=C1C=C(N(Cc2ccc(Cl)nc2)CC(F)F)CO1
group A

Class label required: Cc1ccc(/N=C/N(C)/C=N/c2ccc(C)cc2C)c(C)c1
group A

Class label required: CCOC(=O)NCCOc1ccc(Oc2ccccc2)cc1
group B

Class label required: CO/C=C(/C(=O)OC)c1ccccc1Oc1cc(C(F)(F)F)ccn1
group B

Class label required: CC1(C)C(C=C(Cl)Cl)C1C(=O)OC(C#N)c1cccc(Oc2ccccc2)c1 (stereo not shown)
group C

Class label required: CCc1nn(C)c(C(=O)NCc2ccc(C(C)(C)C)cc2)c1Cl
group A

Class label required: CC(C)N1C(=O)N(c2ccccc2)CS/C1=N\C(C)(C)C
group C

Class label required: CCOc1ccc(C(C)(C)COCc2cccc(Oc3ccccc3)c2)cc1
group C

Class label required: CCOC(=O)CC(SP(=S)(OC)OC)C(=O)OCC (stereo not shown)
group A

###

Measured mortality % 48, without TFNA-AM, listed per entry.
Test system: Anopheles stephensi
Experiment: Anopheles stephensi treated well plate contact test: knockdown and mortality
Assay type: in vivo
Conditions: test compound 0.2 ppm, without TFNA-AM, after 48 hours
Procedure: Examples Anopheles stephensi (Indian Malaria Mosquito) The individual wells of twelve (12) well tissue culture plates were treated with 200 μl of an ethanol solution containing a test compound of Table 1 or Table 2 at a defined concentration and repeated with also 200 μl of an ethanol solution containing in addition 2 ppm TFNA-AM. […]
Number first, unit second.

N#Cc1ccc(CC(=NNC(=O)Nc2ccc(OC(F)(F)F)cc2)c2cccc(C(F)(F)F)c2)cc1 (mixture of isomers) [Metaflumizone]: 0%
CO/C=C(/C(=O)OC)c1ccccc1COc1cccc(C(F)(F)F)n1 [Picoxystrobin]: 0%
CN(C(=O)c1ccccc1)c1cccc(C(=O)Nc2c(Br)cc(C(F)(C(F)(F)F)C(F)(F)F)cc2C(F)(F)F)c1F [Broflanilide]: 20%
O=c1c(-c2cccc(C(F)(F)F)c2)c([O-])[n+](Cc2cncnc2)c2ccccn12 [Triflumizopyrim]: 0%
O=C1C=C(N(Cc2ccc(Cl)nc2)CC(F)F)CO1 [Flupyradifurone]: 0%

Now look at this one.
Would you kindly share the measured mortality % 48, without TFNA-AM for CC(C)=C[C@@H]1[C@@H](C(=O)O[C@H](C#N)c2cccc(Oc3ccccc3)c2)C1(C)C (relative stereo) [d-d, trans cyphenothrin] ?
0%
